Assay: Cytotoxicity assay (CellTiter-Glo, 72 h), Jurkat
Type: cell-based
Details: human, Jurkat cells (T lymphoma), conc 0.390625 uM, raw data (replicates)
Threshold-based label: viability at 72 h, 0.390625 uM under 40% gives Met, viability at 72 h, 0.390625 uM not under 40% gives Not met.

QUERY: Determine if COC1CC2CCC(C)C(O)(O2)C(=O)C(=O)N2CCCCC2C(=O)OC(C(C)CC2CCC(O)C(OC)C2)CCC(C)C=C(C)C(O)C(OC)C(=O)C(C)CC(C)C=CC=CC=C1C (stereo not drawn) shows viability at 72 h, 0.390625 uM strictly lower than 40%.
RESULT: Met

QUERY: Input CO[C@H]1C[C@@H]2CC[C@@H](C)[C@@](O)(O2)C(=O)C(=O)N2CCCC[C@H]2C(=O)O[C@H]([C@H](C)C[C@@H]2CC[C@@H](O)[C@H](OC)C2)CC(=O)[C@H](C)/C=C(\C)[C@@H](O)[C@@H](OC)C(=O)[C@H](C)C[C@H](C)/C=C/C=C/C=C/1C [Compound 1, rapamycin, reference compound] ; condition: viability at 72 h, 0.390625 uM strictly below 40%. Does it hold?
RESULT: Met

QUERY: Criterion: viability at 72 h, 0.390625 uM strictly below 40%. Is it met by CO[C@@H]1/C=C/C=C/[C@@H](C)C[C@@H](C)C(=O)C[C@H](O)/C(C)=C/[C@@H](C)C(=O)C[C@@H]([C@H](C)C[C@@H]2CC[C@@H](O)[C@H](OC)C2)OC(=O)[C@@H]2CCCCN2C(=O)C(=O)[C@]2(O)O[C@@H](CC[C@H]2C)C1 ?
RESULT: Not met

QUERY: is_below(viability at 72 h, 0.390625 uM, 40%) for CO[C@H]1C[C@@H]2CC[C@@H](C)[C@@](O)(O2)C(=O)C(=O)N2CCCC[C@H]2C(=O)O[C@H]([C@H](C)C[C@@H]2CC[C@@H](O)[C@H](OC)C2)CC(=O)[C@H](C)/C=C(\C)[C@@H](O)CC[C@H](C)/C=C/C=C/C=C/1C ?
RESULT: Met

QUERY: Report whether reported viability at 72 h, 0.390625 uM is lower than 40% (strictly) for CO[C@H]1C[C@@H]2CC[C@@H](C)[C@@](O)(O2)C(=O)C(=O)N2CCCC[C@H]2C(=O)O[C@H]([C@H](C)C[C@@H]2CC[C@@H](O)[C@H](OC)C2)CC(=O)[C@H](C)/C=C(\C)[C@@H](O)CC(=O)[C@H](C)C[C@H](C)/C=C/C=C(C)/C=C/1C
RESULT: Not met

QUERY: Is the reported viability at 72 h, 0.390625 uM for COC1CC2CCC(C)C(O)(O2)C(=O)C(=O)N2CCCCC2C(=O)OC(C(C)CC2CCC(O)C(OC)C2)CC(=O)C(C)C=C(C)C(O)CC(=O)C(C)C=C(C)C=CC=CC=C1C (stereo not drawn) strictly below 40%?
RESULT: Not met

QUERY: Dear reviewer, please state whether CO[C@@H]1C[C@H](C[C@@H](C)[C@@H]2CC(=O)[C@H](C)/C=C(\C)[C@@H](O)[C@@H](OC)C(=O)[C@H](C)C[C@H](C)/C=C/C=C/C=C(\C)[C@H](O)C[C@@H]3CC[C@@H](C)[C@@](O)(O3)C(=O)C(=O)N3CCCC[C@H]3C(=O)O2)CC[C@H]1O [Compound 17, (16R)-16-O-demethyl rapamycin] has viability at 72 h, 0.390625 uM strictly beneath 40%.
RESULT: Met

QUERY: Is it true that viability at 72 h, 0.390625 uM reported for COC1CC2CCC(C)C(O)(O2)C(=O)C(=O)N2CCCCC2C(=O)OC(C(C)CC2CCC(O)C(OC)C2)CC(=O)C(C)C=C(C)C(O)C(OC)C(=O)C(C)CC(C)C=CCCC=C1C (stereo not drawn) is less than 40%?
RESULT: Not met

QUERY: Answer whether the compound COC1CC2CCC(C)C(O)(O2)C(=O)C(=O)N2CCCCC2C(=O)OC(C(C)CC2CCC(O)C(OC)C2)CC(O)CC(=O)C(C)C=C(C)C(O)CC(=O)C(C)CC(C)C=CC=CC=C1C (stereo not drawn) has viability at 72 h, 0.390625 uM strictly less than 40%
RESULT: Met
